- target system: CDK3/CycE1 (Homo sapiens)
- Sequence (Q00526 whole entry, species assumed): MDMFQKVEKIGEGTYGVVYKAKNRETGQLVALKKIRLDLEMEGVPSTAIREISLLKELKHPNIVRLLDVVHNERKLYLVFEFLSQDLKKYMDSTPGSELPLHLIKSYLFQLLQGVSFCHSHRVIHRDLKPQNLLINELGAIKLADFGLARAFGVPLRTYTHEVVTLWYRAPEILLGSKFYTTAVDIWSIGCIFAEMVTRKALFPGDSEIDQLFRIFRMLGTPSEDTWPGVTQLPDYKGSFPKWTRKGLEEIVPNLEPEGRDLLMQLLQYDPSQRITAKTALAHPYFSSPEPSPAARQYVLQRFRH
- Sequence (P24864 whole entry partner, species assumed): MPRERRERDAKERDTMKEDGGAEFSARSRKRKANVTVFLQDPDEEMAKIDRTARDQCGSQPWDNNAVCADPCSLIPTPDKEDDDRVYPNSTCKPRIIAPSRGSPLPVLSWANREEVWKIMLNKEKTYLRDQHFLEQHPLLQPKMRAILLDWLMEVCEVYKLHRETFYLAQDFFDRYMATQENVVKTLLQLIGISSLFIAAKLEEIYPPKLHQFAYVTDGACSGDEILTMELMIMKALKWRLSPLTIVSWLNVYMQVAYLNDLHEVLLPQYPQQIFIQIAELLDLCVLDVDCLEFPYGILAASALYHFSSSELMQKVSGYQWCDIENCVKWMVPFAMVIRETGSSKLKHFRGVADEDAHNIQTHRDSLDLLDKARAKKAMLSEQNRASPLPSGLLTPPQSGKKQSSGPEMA
- assay notes: ADP-Glo kinase assay on CDK enzymatic activity, CDK3/CycE1
- Format: biochemical
- conditions: 10 concentrations from 10 μM, 4-fold, 60 min room temperature
metric name: IC50 (nM)
Could you give me the number in nM? Just the number is fine.

> print(dat)
                            compound.string  unit.info  result
1  CC(=O)N[C@@H]1CCC[C@H](C(=O)Nc2cc3c(N4CC[C@@](C)(O)C4)nc(C#N)cc3cn2)C1         nM    1910
2     CCNc1nc(C#N)cc2cnc(N[C@H]3CCCNC3)cc12         nM     915
3  CC(C)Nc1nc(C(F)F)cc2cnc(N[C@H]3CCCNC3)cc12         nM      14

Ask: Recorded IC50 for CC(C)Nc1nc(C#N)cc2cnc(N[C@@H]3CNCC(F)(F)C3)cc12 , please?
Reply: 75

----------
- target system: CDK9/CycT1 (Homo sapiens)
- assay notes: ADP-Glo kinase assay on CDK enzymatic activity, CDK9/CycT1
- Format: biochemical
- conditions: 10 concentrations from 10 μM, 4-fold, 60 min room temperature
With a cut-off of 2 nM, any IC50 strictly below it is called T; any IC50 meeting it or above is called F.

> print(dat)
                                   compound  class.label
1  CC(C)Nc1nc(C(F)F)cc2cnc(N[C@H]3C[C@H](N)C3)cc12 [Compound 206]            T
2  CC(C)Nc1nc(C#N)cc2cnc(N[C@H]3C[C@](C)(N)C3)nc12 [Compound C26]            T

Ask: is_below(IC50, 2 nM) for CC(C)Oc1nc(C#N)cc2cnc(N[C@H]3CCCNC3)nc12 [Compound C49] ?
Reply: F

Ask: // query: CC(C)(C)Nc1nc(C(N)=O)cc2cnc(N[C@H]3C[C@H](N)C3)nc12 [Compound C19]
Reply: F

Ask: // query: N#Cc1cc2cnc(N[C@H]3CCCNC3)cc2c(O[C@@H]2CCOC2)n1 [Compound 154]
Reply: F

Ask: // query: CC(C)(C)Nc1nc(C#N)cc2cnc(N[C@H]3C[C@@H](N)C3)cc12 [Compound 172]
Reply: T

Ask: // query: CC(C)Oc1nc(C#N)cc2cnc(N[C@H]3CC[C@H](N)C3)cc12 [Compound 51]
Reply: T

----------
- target system: CDK9/CycT1 (Homo sapiens, UniProt P50750)
- Sequence (P50750 whole entry): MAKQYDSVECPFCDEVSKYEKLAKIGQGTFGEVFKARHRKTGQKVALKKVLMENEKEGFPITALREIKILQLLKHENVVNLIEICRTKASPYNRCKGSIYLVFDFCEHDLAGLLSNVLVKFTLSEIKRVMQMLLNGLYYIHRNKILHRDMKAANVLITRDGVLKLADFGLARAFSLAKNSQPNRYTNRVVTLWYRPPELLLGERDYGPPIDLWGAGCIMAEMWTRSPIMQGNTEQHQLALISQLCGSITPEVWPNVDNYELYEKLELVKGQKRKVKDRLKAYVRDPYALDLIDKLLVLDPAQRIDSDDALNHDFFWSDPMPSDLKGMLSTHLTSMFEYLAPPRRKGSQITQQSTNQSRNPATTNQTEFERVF
- Sequence (O60563 whole entry partner): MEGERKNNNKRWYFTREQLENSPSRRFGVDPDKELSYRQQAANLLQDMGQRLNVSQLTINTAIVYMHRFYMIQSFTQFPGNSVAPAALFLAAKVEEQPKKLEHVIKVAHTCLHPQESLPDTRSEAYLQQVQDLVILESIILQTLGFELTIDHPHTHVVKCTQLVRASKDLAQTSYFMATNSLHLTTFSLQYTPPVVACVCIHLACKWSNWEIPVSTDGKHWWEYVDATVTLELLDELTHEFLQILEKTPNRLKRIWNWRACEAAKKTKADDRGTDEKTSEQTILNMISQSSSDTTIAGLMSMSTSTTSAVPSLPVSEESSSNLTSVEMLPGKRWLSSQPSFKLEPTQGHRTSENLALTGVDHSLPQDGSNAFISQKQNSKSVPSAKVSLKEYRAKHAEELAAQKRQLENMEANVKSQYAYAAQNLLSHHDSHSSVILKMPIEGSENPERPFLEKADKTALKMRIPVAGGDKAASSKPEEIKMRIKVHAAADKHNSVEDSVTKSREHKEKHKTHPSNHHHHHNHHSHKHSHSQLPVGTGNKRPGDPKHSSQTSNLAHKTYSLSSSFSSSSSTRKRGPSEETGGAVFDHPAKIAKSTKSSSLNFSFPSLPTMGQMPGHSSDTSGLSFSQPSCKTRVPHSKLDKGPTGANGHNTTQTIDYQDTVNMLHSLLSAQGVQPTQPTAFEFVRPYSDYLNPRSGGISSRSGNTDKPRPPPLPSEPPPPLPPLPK
- assay notes: ADP-Glo kinase assay on CDK enzymatic activity, CDK9/CycT1
- Assay type: biochemical
- conditions: 10 concentrations from 10 μM, 4-fold, 60 min room temperature
Measured IC50 by item
Could you give me the number in nM? Just the number is fine.

Answered examples (5):
> print(dat)
                                   molecule  result
1   N#Cc1cc2cnc(N[C@H]3CCCNC3)cc2c(C2CC2)n1      15
2  CC(C)Nc1nc(C#N)cc2cnc(N[C@@H]3CCC[C@H]3N)cc12      47
3  CC(C)Oc1nc(C#N)cc2cnc(N[C@H]3CCCNC3)cc12       2
4  CC(C)Nc1nc(C#N)cc2cnc(N[C@H]3CCC[C@@H](O)C3)cc12       6
5  CC(C)Nc1nc(C#N)cc2cnc(N[C@H]3CCC[C@H]3N)cc12       3

Ask: GET /values?readout=IC50&system=CDK9/CycT1 (Homo sapiens, UniProt P50750)&item= COC[C@H](C)Nc1nc(C#N)cc2cnc(N[C@H]3C[C@H](N)C3)nc12
Reply: 2

Ask: // query: CC(=O)N1CCC[C@H](C(=O)Nc2cc3c(NC(C)C)nc(C#N)cc3cn2)C1
Reply: 26

Ask: // query: CC(C)Nc1nc(C#N)cc2cnc(NC3CCCS(=O)(=O)C3)nc12 (stereo not drawn)
Reply: 14

Ask: // query: N#Cc1cc2cnc(N[C@H]3CCCNC3)cc2c(NC2CCCC2)n1
Reply: 1

Ask: // query: FC(F)c1cc2cnc(N[C@H]3CCCNC3)cc2c(N[C@@H]2CCOC2)n1
Reply: 2

Ask: // query: CN[C@@H]1CC[C@H](Nc2cc3c(NC(C)C)nc(C#N)cc3cn2)C1
Reply: 7

Ask: // query: CC(C)(C)Nc1nc(C#N)cc2cnc(N[C@H]3CCCNC3)cc12
Reply: 1

Ask: // query: CC(C)Nc1nc(C#N)cc2cnc(N[C@H]3CC[C@@H](O)C3)cc12
Reply: 1

Ask: // query: N#Cc1cc2cnc(N[C@H]3CCCNC3)cc2c(C2CCCC2)n1
Reply: 8

Ask: // query: CC(C)Nc1nc(C#N)cc2cnc(N[C@H]3CC[C@@H](N)C3)cc12
Reply: 4

Ask: // query: N#Cc1cc2cnc(N[C@H]3CCCNC3)cc2c(O[C@H]2CCOC2)n1
Reply: 33

Ask: // query: CC(C)Nc1nc(C(F)F)cc2cnc(N[C@H]3CC[C@H](N)C3)cc12
Reply: 1

Ask: // query: CC(C)(C)Nc1nc(C#N)cc2cnc(N[C@H]3C[C@H](N)C3)nc12
Reply: 2

----------
- target system: CDK9/CycT1 (Homo sapiens, UniProt P50750)
- assay notes: Off-chip mobility shift assay (MSA) on CDK9/CycT1
- Assay type: biochemical
- Parameters: Full-length human CDK9 [1-372(end) amino acids of; host or cells: baculovirus expression system
- conditions: 4-point concentration (0.0016, 0.008, 0.04, 0.2 uM), ATP 10 μM, reaction time 5 hours, read-out: CDK9/CycT1/nM (inhibitory activity)
metric name: IC50 (nM)
Could you give me the number in nM? Just the number is fine.

> print(dat)
                                   molecule  metric.name  unit.info  result
1  CC(C)Nc1nc([C@@H](C)O)cc2cnc(N[C@H]3CC[C@H](NC(=O)CN(C)C)CC3)nc12 [Compound 63]         IC50         nM      14
2  CC(C)Nc1nc([C@@H](C)O)cc2cnc(N[C@H]3CC[C@H](N4CCN(C)CC4)CC3)nc12 [Compound 67]         IC50         nM      10

Ask: Recorded IC50 for CC(=O)c1cc2cnc(N[C@H]3CC[C@H](O)CC3)nc2c(NC(C)C)n1 [Compound 88] , please?
Reply: 44

Ask: // query: CC(C)Nc1nc(C2COC2)cc2cnc(N[C@H]3CC[C@H](O)CC3)nc12 [Compound 95]
Reply: 34

Ask: // query: CC(=O)N[C@@H]1CCC[C@H](C(=O)Nc2cc3c(NC(C)C)nc([C@@H](C)O)cc3cn2)C1 [Compound 98]
Reply: 28

Ask: // query: CNC(=O)[C@H]1CC[C@@H](Nc2ncc3cc([C@@H](C)O)nc(NC(C)C)c3n2)C1 [Compound 79]
Reply: 23

Ask: // query: CC(C)Nc1nc([C@@H](C)O)cc2cnc(N[C@H]3CC[C@H](NC4COC4)CC3)cc12 [Compound 101]
Reply: 15

----------
- target system: CDK2/CycA2 (Homo sapiens, UniProt P24941)
- assay notes: ADP-Glo kinase assay on CDK enzymatic activity, CDK2/CycA2
- Format: biochemical
- conditions: 10 concentrations from 10 μM, 4-fold, 60 min room temperature
metric name: IC50 (nM)
Could you give me the number in nM? Just the number is fine.

Answered examples (2):
> print(dat)
                                   compound  result
1  CC(C)Nc1nc(C#N)cc2cnc(N[C@H]3CCCNC3)cc12 [Compound 38]     110
2  CC(=O)N[C@@H]1CC[C@H](Nc2cc3c(NC(C)C)nc(C#N)cc3cn2)C1 [Compound 47]     494

Ask: Recorded IC50 for CC(C)Nc1nc(C#N)cc2cnc(N[C@H]3CC[C@H](O)C3)cc12 [Compound 33] , please?
Reply: 3

Ask: // query: CCNc1nc(C#N)cc2cnc(N[C@H]3C[C@H](N)C3)nc12 [Compound C28]
Reply: 34

Ask: // query: CC(=O)N[C@@H]1CCC[C@H](C(=O)Nc2cc3c(N4CCC(F)(F)CC4)nc(C#N)cc3cn2)C1 [Compound 23]
Reply: 3870

Ask: // query: CC(C)Nc1nc(C#N)cc2cnc(N[C@H]3C[C@H](N4CCN(C)CC4)C3)nc12 [Compound C22]
Reply: 24

Ask: // query: CC(C)Nc1nc(C#N)cc2cnc(N[C@H]3C[C@H](N)C3)nc12 [Compound 127]
Reply: 14

Ask: // query: CC(C)Nc1nc(C#N)cc2cnc(N[C@H]3C[C@](C)(N)C3)nc12 [Compound C26]
Reply: 93
